The reported measurements were obtained from ChEMBL document CHEMBL2439983.

Give measured IC50 for each item. Keep answers brief.
Target: UniProtKB O15379
Sequence (O15379 whole entry): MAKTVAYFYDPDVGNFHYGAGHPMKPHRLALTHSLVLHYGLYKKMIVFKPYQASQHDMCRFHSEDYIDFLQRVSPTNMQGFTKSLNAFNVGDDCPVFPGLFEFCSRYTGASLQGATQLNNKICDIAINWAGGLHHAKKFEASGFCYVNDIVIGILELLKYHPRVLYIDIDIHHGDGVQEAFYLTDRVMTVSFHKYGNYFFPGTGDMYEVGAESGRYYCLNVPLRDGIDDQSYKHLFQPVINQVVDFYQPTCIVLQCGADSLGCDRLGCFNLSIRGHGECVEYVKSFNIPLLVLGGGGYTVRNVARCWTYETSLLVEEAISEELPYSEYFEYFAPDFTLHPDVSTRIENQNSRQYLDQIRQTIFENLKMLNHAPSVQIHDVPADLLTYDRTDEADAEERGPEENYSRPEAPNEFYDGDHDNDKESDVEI
Assay: Inhibition of human recombinant HDAC3 expressed in baculovirus infected insect high5 cells using Ac-Lys-Tyr-Lys (epsilon-acetyl)-AMC as substrate after 3 to 24 hrs by fluorescence assay
The response must be a number in nM with no trailing unit.

Problem: # return recorded IC50 for input "COc1cc([C@@H]2c3cc4c(cc3[C@@H](Nc3cccc(NC(=O)CCCCC(=O)NO)c3)[C@H]3COC(=O)[C@H]23)OCO4)cc(OC)c1O"
Solution: 2110

Problem: # return recorded IC50 for input "COc1cc([C@@H]2c3cc4c(cc3[C@@H](Nc3ccc(OCCCCCC(=O)NO)cc3)[C@H]3COC(=O)[C@H]23)OCO4)cc(OC)c1O"
Solution: 69

Problem: # return recorded IC50 for input "COc1cc([C@@H]2c3cc4c(cc3[C@@H](Nc3cccc(OCCCCCCCC(=O)NO)c3)[C@H]3COC(=O)[C@H]23)OCO4)cc(OC)c1O"
Solution: 69

Problem: # return recorded IC50 for input "COc1cc([C@@H]2c3cc4c(cc3[C@@H](Nc3ccccc3OCCCCC(=O)NO)[C@H]3COC(=O)[C@H]23)OCO4)cc(OC)c1O"
Solution: 899

Problem: # return recorded IC50 for input "COc1cc([C@@H]2c3cc4c(cc3[C@@H](Nc3cccc(OCCCC(=O)NO)c3)[C@H]3COC(=O)[C@H]23)OCO4)cc(OC)c1O"
Solution: 767

Problem: # return recorded IC50 for input "COc1cc([C@@H]2c3cc4c(cc3[C@@H](Nc3ccc(NC(=O)CCCCCCC(=O)NO)cc3)[C@H]3COC(=O)[C@H]23)OCO4)cc(OC)c1O"
Solution: 230

Problem: # return recorded IC50 for input "COc1cc([C@@H]2c3cc4c(cc3[C@@H](Nc3ccc(NC(=O)CCCCC(=O)NO)cc3)[C@H]3COC(=O)[C@H]23)OCO4)cc(OC)c1O"
Solution: 1690

Problem: # return recorded IC50 for input "COc1cc([C@@H]2c3cc4c(cc3[C@@H](Nc3ccc(OCCCCCCC(=O)NO)cc3)[C@H]3COC(=O)[C@H]23)OCO4)cc(OC)c1O"
Solution: 49

Problem: # return recorded IC50 for input "COc1cc([C@@H]2c3cc4c(cc3[C@@H](Nc3ccccc3OCCCCCCCC(=O)NO)[C@H]3COC(=O)[C@H]23)OCO4)cc(OC)c1O"
Solution: 217
